# half-life per entry
- ASSAY NOTES: Pharmacokinetics and bioavailability test in rats (Example 60)
- Assay type: in vivo
- PARTICULARS: rat, in vivo; SD rats, PO 10 mg/kg
Enter your answer as a number in h; do not include the unit.

MOLECULE	ASSAY VALUE
O=C1CCC(N2C(=O)c3ccc(N4CCN(C5CCN(c6ccc(N(C(=O)NCc7ccccc7)[C@H]7CC[C@H](Nc8ncc9ccccc9n8)CC7)cc6)CC5)CC4)cc3C2=O)C(=O)N1 (some centres unmarked)	3.76

Q: Could you share which half-life value was measured for O=C1CCC(N2C(=O)c3ccc(N4CC(CN5CCN(c6ccc(N(C(=O)NCc7ccccc7)[C@H]7CC[C@H](Nc8ncc9ccccc9n8)CC7)cc6)CC5)C4)cc3C2=O)C(=O)N1 (some centres unmarked) ?
A: 10.4
